Values were extracted from ChEMBL document CHEMBL1201862.

# TARGET OF ASSAY: Luciferin 4-monooxygenase (Photinus pyralis)
# Sequence (P08659 whole entry): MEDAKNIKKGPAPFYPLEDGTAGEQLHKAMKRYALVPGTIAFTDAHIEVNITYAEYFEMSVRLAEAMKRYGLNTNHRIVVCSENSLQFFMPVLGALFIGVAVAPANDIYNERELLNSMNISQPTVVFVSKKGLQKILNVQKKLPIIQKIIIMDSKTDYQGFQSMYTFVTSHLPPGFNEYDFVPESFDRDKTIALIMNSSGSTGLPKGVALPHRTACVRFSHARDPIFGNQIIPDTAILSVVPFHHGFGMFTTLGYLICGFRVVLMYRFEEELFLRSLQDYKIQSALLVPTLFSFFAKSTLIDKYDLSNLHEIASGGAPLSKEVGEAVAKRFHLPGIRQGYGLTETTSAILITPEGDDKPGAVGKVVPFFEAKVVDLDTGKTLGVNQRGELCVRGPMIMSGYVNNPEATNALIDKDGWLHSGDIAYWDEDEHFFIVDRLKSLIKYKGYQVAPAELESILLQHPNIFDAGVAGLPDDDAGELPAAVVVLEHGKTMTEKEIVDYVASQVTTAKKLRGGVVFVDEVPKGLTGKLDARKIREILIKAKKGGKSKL
# TEST DESCRIPTION: firefly luciferase enzyme inhibitors, dose response, biochemical, luminescence (AID 1891)
Calls of active or inactive are those of the source.

{"columns": ["MOLECULE", "EC50"],
 "data": [
  ["CCOc1cccc(-c2c(C(=O)N/N=C/c3ccc(C)s3)nnn2-c2nonc2N)c1", "> 112 µM (not active)"],
  ["CC1CCCCN1Cc1nc2c(c(=O)n(C)c(=O)n2C)n1CCc1ccccc1 (stereo not given)", "> 112 µM (not active)"],
  ["Cc1nc(O)nc(O)c1/C=N/NC(=O)CCNC(=O)OC(C)(C)C", "> 112 µM (not active)"],
  ["O=C(NCc1ccco1)c1ccc(-c2ccccc2Cl)o1", "> 112 µM (not active)"],
  ["CCc1cc(=O)oc2c(C)c(OCC(=O)NC3CC(C)(C)NC(C)(C)C3)ccc12", "> 112 µM (not active)"],
  ["Cc1cc(NC(=O)/C=C/c2cccc(Cl)c2)n(-c2nc3ccccc3[nH]2)n1", "> 112 µM (not active)"],
  ["CCOC(=O)c1ccc2nc(NC(=O)c3cccs3)sc2c1", "0.729 µM (active)"],
  ["CCOC(=O)C1=C(C)OC(N)=C(C#N)C1C1CCCCC1 (stereo not given)", "> 112 µM (not active)"],
  ["Cc1cc(N)n2nc(-c3ccc(C(C)(C)C)cc3)cc2n1", "0.401 µM (active)"],
  ["COc1ccccc1N1CCN(C(=O)c2cc(-c3ccccc3O)on2)CC1", "> 112 µM (not active)"]
]}

---

Catalogue of IC50 values
# TARGET OF ASSAY: Large T antigen (Simian virus 40);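 further: Confirmatory-stage PubChem screen for compounds that inhibit SV40 T antigen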
# Sequence (P03070 whole entry): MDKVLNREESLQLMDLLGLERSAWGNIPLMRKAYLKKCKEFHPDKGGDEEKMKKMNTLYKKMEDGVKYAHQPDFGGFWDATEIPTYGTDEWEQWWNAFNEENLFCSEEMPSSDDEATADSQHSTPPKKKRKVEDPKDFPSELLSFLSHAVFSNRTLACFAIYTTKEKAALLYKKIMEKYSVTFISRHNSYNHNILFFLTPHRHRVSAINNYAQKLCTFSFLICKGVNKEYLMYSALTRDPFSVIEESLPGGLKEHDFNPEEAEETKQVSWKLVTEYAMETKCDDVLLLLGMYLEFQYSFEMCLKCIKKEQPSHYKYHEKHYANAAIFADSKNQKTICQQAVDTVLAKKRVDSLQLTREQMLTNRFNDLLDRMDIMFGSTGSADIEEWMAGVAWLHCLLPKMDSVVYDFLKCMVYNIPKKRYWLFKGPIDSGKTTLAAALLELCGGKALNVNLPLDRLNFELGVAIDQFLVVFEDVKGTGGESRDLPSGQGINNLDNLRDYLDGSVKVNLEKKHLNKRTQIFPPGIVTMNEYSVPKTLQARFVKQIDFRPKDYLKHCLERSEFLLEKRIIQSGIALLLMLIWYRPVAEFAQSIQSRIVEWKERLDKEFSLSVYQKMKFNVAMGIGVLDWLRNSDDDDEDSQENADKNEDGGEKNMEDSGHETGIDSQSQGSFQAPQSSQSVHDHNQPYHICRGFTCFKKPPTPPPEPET
# Type: functional, Betapolyomavirus macacae
Active and inactive are the calls of the source.
QUANTITY MEASURED: IC50

{"columns": ["COMPOUND", "RESULT"],
 "data": [
  ["CC(C)CCn1c(=O)c2ccccc2n2c(=S)[nH]nc12", "14.7 µM (active)"],
  ["C=C1C(=O)O[C@H]2[C@H]1[C@H](OC(=O)CC(=O)O[C@@H]1C[C@@H](C)[C@@H]3C=CC(=O)[C@@]3(C)[C@H]3OC(=O)C(=C)[C@H]13)C[C@@H](C)[C@H]1C=CC(=O)[C@]12C", "52 µM (active)"],
  ["O=C(O)c1cccc(S(=O)(=O)Nc2ccc3oc(=O)sc3c2)c1", "46.3 µM (active)"],
  ["COc1cc(N2C(=O)C=CC2=O)c(OC)cc1Cl", "54.6 µM (active)"],
  ["Cc1ccc(/C=C2\\C(=O)NC(=S)N(c3cccc(F)c3)C2=O)o1", "36.7 µM (active)"],
  ["Cc1ccc(S(=O)(=O)N2[C@@H](c3ccc(Cl)cc3)C(C(=O)O)=CC[C@H]2c2ccc(C(C)C)cc2)cc1", "60.4 µM (active)"],
  ["Nc1ncnc(O)c1/N=C/c1ccccc1", "28.6 µM (active)"],
  ["Cc1ccc(C2C=NN(c3ccccc3)C2=O)cc1 (stereo unspecified)", "31 µM (active)"],
  ["CC/N=c1\\scc(C)n1/N=C/c1cc(Br)c(O)c(OC)c1", "8.55 µM (active)"],
  ["CC1=NN(c2ccc(Cl)c(C(=O)O)c2)C(=O)/C1=C/c1ccc(-c2ccccc2[N+](=O)[O-])o1", "15.7 µM (active)"],
  ["Cc1cccc(N2C(=O)/C(=C/Nc3ccc(O)cc3)c3ccccc3C2=O)n1", "7.67 µM (active)"]
]}

---

# TEST DESCRIPTION: cells
# Assay type: functional, cell-based
Calls of active or inactive are those of the source.
Catalogue of EC50 values
QUANTITY MEASURED: EC50

{"columns": ["COMPOUND", "QUANTITY MEASURED", "RESULT"],
 "data": [
  ["Cc1ccc(NC(=O)CSc2ncc3ccccn23)cc1", "EC50", "> 350 µM (not active)"],
  ["Oc1ccccc1C(Nc1nccs1)c1ccc2cccnc2c1O (centres undefined)", "EC50", "12.5 µM (active)"],
  ["Cc1cc(-c2nnnn2-c2cc(Cl)cc(Cl)c2)no1", "EC50", "> 350 µM (not active)"],
  ["CC(C(=O)Nc1ccccc1-c1ccccc1)N1CCN(C(=O)c2ccccc2)CC1 (centres undefined)", "EC50", "> 350 µM (not active)"]
]}

---

# Test system: INS1
# TEST DESCRIPTION: beta cell apoptosis inhibitors, cytokine rescue, dose response, luminescence, retest (AID 449756);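 further: cell death triggered by IL-1 beta plus TNF-alpha plus IFN-gamma mixture; protective hits raise ATP signal compared with cytokine alone wells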
# Format: functional, cell-based
# ASSAY CONTEXT: Rattus norvegicus
The source made the active and inactive calls.
Outcome codes: True (active), False (inactive)

{"columns": ["COMPOUND STRING", "TARGET OF ASSAY", "GROUP LABEL"],
 "data": [
  ["O=C1C(=O)c2ccccc2-c2ccccc21", "INS1", "True"],
  ["CCCC(=O)N(CCN(C(=O)CCC)c1ccccc1)c1ccccc1", "INS1", "True"],
  ["CCOc1ccc(N(C)S(=O)(=O)c2ccc(C)c(C(=O)OCC(=O)c3c[nH]c4ccccc34)c2)cc1", "INS1", "True"],
  ["C=C1C(=O)O[C@@H]2C[C@@H](C)[C@@H]3C=CC(=O)[C@@]3(C)[C@@H](O)[C@H]12", "INS1", "True"],
  ["COc1cccc(CN(C)C(=O)c2cc(COc3ccc4ncccc4c3)on2)c1", "INS1", "True"],
  ["Cc1nc2ccccc2c2oc(C(=O)Nc3ccc(C(C)C)cc3)cc12", "INS1", "True"],
  ["CCOC(=O)C1=C(c2ccc(OC)cc2)C(=O)c2ccccc2C1=O", "INS1", "True"],
  ["C=CCN(CC=C)Cc1c[nH]c2ccccc12", "INS1", "False"]
]}

---

Catalogue of AC50 values
# TEST DESCRIPTION: inhibitors of HIV Env-driven cell fusion, dose response, cherry-pick (AID 652057)
# Assay type: functional, cell-based
Activity calls are given as the source filed them.

{"columns": ["MOLECULE", "AC50"],
 "data": [
  ["CC(C)(C)C1CCc2onc(C(=O)NCc3ccc(F)cc3)c2C1 (centres undefined)", "23 µM (active)"],
  ["Cc1cccc(CNc2ncnc3ccc(-c4ccc5c(c4)OCCO5)cc23)c1", "27.9 µM (active)"],
  ["CN(C)c1ccc(O)c2c1CC1CC3[C@@H](N(C)C)C(=O)C(C(N)=O)C(=O)[C@]3(O)C(=O)C1C2=O (some centres undefined)", "< 0.26 µM (active)"],
  ["COc1ccc(Nc2cc(C)nc(NCc3ccccc3)n2)cc1", "8.45 µM (active)"]
]}

---

# TEST DESCRIPTION: Shn3 3'UTR reporter inhibitors, dose response, cell-based, Clone20 osteoblasts, firefly luciferase, cherry-picked (AID 624132);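 further: firefly luciferase luminescence from reporter carrying the Shn3 3'UTR in osteoblasts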
# Format: functional
Active and inactive are the calls of the source.
QUANTITY MEASURED: AC50

{"columns": ["MOLECULE", "QUANTITY MEASURED", "RESULT"],
 "data": [
  ["CCN1CCN(Cc2ccc(NC(=O)c3ccc(C)c(NC(=O)c4cncc(-c5cccs5)c4)c3)cc2C(F)(F)F)CC1", "AC50", "0.808 µM (active)"],
  ["O=C(c1cccc(S(=O)(=O)N2CCN(c3ccccc3)CC2)c1)N1CCCC(C(F)(F)F)C1 (stereo unspecified)", "AC50", "2.68 µM (active)"],
  ["CC(C)(C)C(=O)NC(=S)NNC(=O)c1sc2ccccc2c1Cl", "AC50", "19.1 µM (active)"],
  ["O=C(Nc1ccc(N2CCN(C(=O)c3ccco3)CC2)c(Cl)c1)c1cc2ccccc2o1", "AC50", "5 µM (active)"],
  ["CC1CCC2C(=O)N(c3ccc(Cc4ccncc4)cc3)C(=O)C2C1 (stereo unspecified)", "AC50", "2.65 µM (active)"],
  ["CCCC(c1nnnn1Cc1ccc(OC)cc1)N1CCN(c2ccccc2)CC1 (stereo unspecified)", "AC50", "31.9 µM (active)"]
]}

---

# TARGET OF ASSAY: Tyrosine-protein phosphatase non-receptor type 7 (Homo sapiens)
# Sequence (P35236 whole entry): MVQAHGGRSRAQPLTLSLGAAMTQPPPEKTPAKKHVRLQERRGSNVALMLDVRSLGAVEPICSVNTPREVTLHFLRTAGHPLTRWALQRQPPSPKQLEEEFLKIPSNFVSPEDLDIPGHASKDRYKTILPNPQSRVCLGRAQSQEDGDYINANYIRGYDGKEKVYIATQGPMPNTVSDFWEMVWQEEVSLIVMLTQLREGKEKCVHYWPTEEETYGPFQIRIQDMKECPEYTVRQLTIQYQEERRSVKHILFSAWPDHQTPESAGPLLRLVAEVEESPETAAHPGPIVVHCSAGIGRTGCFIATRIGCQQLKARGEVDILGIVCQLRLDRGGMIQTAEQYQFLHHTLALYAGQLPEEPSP
# TEST DESCRIPTION: inhibitors of human HePTP phosphatase, […], biochemical, absorbance, leukemia target (AID 521)
# Format: functional
Activity calls are given as the source filed them.
QUANTITY MEASURED: IC50

{"columns": ["COMPOUND", "RESULT"],
 "data": [
  ["O=C(CCCn1c(=S)[nH]c2ccsc2c1=O)NCc1ccco1", "> 100 µM (not active)"],
  ["CCC(=O)Nc1ccc(NC(=O)c2ccco2)c(OC)c1", "> 100 µM (not active)"],
  ["CCn1c(SC(C)C(=O)O)nc2sc3c(c2c1=O)CCC3 (centres undefined)", "1.69 µM (active)"],
  ["CCc1nc2sc3ccccc3c(=O)c2c(=O)n1Cc1ccco1", "15.1 µM (active)"]
]}
